Test system: sCLU secreted from human U-87 MG glioblastoma cells
assay_details: Human sCLU AlphaLISA on supernatant of U-87 MG cells (HTS, re-test, dose response)
Type: cell-based
condition_context: Homo sapiens; U-87 MG cells, 30 h, AlphaLISA of supernatant; read-out: EC50 for sCLU increase
Label Fulfilled when EC50 is strictly below 300 nM; at or above that, label Not fulfilled.

In the record for `Cc1sc2c(c1C)C(c1ccc(Cl)cc1)=N[C@@H](CC(=O)NO)c1nnc(C)n1-2` , is EC50 less than 300 nM?
Not fulfilled

In the record for `Cc1sc2c(c1C)C(c1ccc(Cl)cc1)=N[C@@H](CC(=O)OC1CCC1)c1nnc(C)n1-2` , is EC50 less than 300 nM?
Fulfilled

In the record for `Cc1sc2c(c1C)C(c1ccc(Cl)cc1)=N[C@@H](CC(=O)OC1COC1)c1nnc(C)n1-2` , is EC50 less than 300 nM?
Fulfilled

In the record for Cc1sc2c(c1C)C(c1ccc(Cl)cc1)=N[C@@H](CC(=O)OC(C)(C)C)c1nnc(C)n1-2 [(+)-JQ1, reference compound] , is EC50 less than 300 nM?
Not fulfilled

In the record for `Cc1sc2c(c1C)C(c1ccc(Cl)cc1)=N[C@@H](CC(=O)OC1CCCC1)c1nnc(C)n1-2` , is EC50 less than 300 nM?
Fulfilled

In the record for `Cc1sc2c(c1C)C(c1ccc(Cl)cc1)=N[C@@H](CC(=O)N1CCCC1)c1nnc(C)n1-2` , is EC50 less than 300 nM?
Not fulfilled

====

assay_details: Blood-Brain Barrier (BBB) permeability assay (IAM column, Pm)
Format: in vitro ADME
condition_context: pH 7.4; Pm > 1.0 = CNS+
Provide the recorded PAMPA Pm for the entries that follow.
# output: bare number, no unit

# return recorded PAMPA Pm for input Cc1sc2c(c1C)C(c1ccc(Cl)cc1)=NC(CC(=O)NC(C)C(=O)OC(C)C)c1nnc(C)n1-2 (stereo not drawn)
0.71

# return recorded PAMPA Pm for input `CCCCOC(=O)C[C@@H]1N=C(c2ccc(Cl)cc2)c2c(sc(C)c2C)-n2c(C)nnc21`
1.42

# return recorded PAMPA Pm for input Cc1sc2c(c1C)C(c1ccc(Cl)cc1)=N[C@@H](CC(=O)OC(C)(C)C)c1nnc(C)n1-2 [(+)-JQ1, reference compound]
1.44

# return recorded PAMPA Pm for input `Cc1sc2c(c1C)C(c1ccc(Cl)cc1)=N[C@@H](CC(=O)OC1CCC1)c1nnc(C)n1-2`
1.42

# return recorded PAMPA Pm for input `Cc1sc2c(c1C)C(c1ccc(Cl)cc1)=N[C@@H](CC(=O)OC1CCCC1)c1nnc(C)n1-2`
1.35

# return recorded PAMPA Pm for input `Cc1sc2c(c1C)C(c1ccc(Cl)cc1)=N[C@@H](CC(=O)NO)c1nnc(C)n1-2`
1.09

# return recorded PAMPA Pm for input `Cc1sc2c(c1C)C(c1ccc(Cl)cc1)=N[C@@H](CC(=O)NCC(=O)OC(C)C)c1nnc(C)n1-2`
0.76

# return recorded PAMPA Pm for input `Cc1sc2c(c1C)C(c1ccc(Cl)cc1)=N[C@@H](CC(=O)OC1CC1)c1nnc(C)n1-2`
1.66

# return recorded PAMPA Pm for input `Cc1sc2c(c1C)C(c1ccc(Cl)cc1)=N[C@@H](CC(=O)NC1CCCC1)c1nnc(C)n1-2`
1.08
